- study system: Endogenous bovine Arp2/3 complex, A7MB62;P61157
- assay protocol: fluorescence anisotropy competition assay
- applied conditions: chain shown with the change; reporter 20 nM VVCA-A462C-AF594; mixture incubated for 10 min prior to measurement; parent: est. 6.0 nM; read off a plot
measure: Kd (nM)
Value expressed in nM; do not type the unit.

The measured Kd associated with GST-VCA (GST fusion of N-WASP residues 432–505), O00401 I467A (protein) SGRDALLDQIRQGIQLKSVADGQESTPPTPAPTSGAVGALMEVMQKRSKAIHSSDEDEDEDDEEDFEDDDEWED reads 20

src = paper PMC3762362
